# Tgt: Voltage-gated potassium channel subunit beta-2 (Rattus norvegicus)
# Assay summary: inhibitors of rat Kvbeta2 reductase activity – biochemical, NADPH fluorescence, primary screen (AID 622);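 note: slope of raw intensity against log time taken from 70 to 1610 s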
# Condition notes: recombinant KvBeta, 4-cyanobenzaldehyde reduction, at 10 µM, stronger effect = higher value
Give measured fluorescence slope for each item. Keep answers brief.
Answer with a bare number; do not write a unit.

Lookup: Give fluorescence slope (Voltage-gated potassium channel subunit beta-2 (Rattus norvegicus)) of the following compound: COc1cc(C2Oc3cc(C4Oc5cc(O)cc(O)c5C(=O)C4O)ccc3OC2CO)ccc1O (configuration not stated)
Found: -0.479

Lookup: Tell me reported fluorescence slope for Cc1ccc(-c2noc(C3CCCN(C(=O)c4ccc(F)cc4F)C3)n2)cc1 (configuration not stated) , tested with Voltage-gated potassium channel subunit beta-2 (Rattus norvegicus).
Found: -0.274

Lookup: # value lookup — system Voltage-gated potassium channel subunit beta-2 (Rattus norvegicus), readout fluorescence slope, item CCn1c(SCC(=O)NCCc2ccc(Cl)cc2)nnc1-c1cccs1
Found: -0.572

Lookup: Query fluorescence slope on Voltage-gated potassium channel subunit beta-2 (Rattus norvegicus) for CCOc1cc(C2C(C#N)=C(N)OC(C)=C2C(C)=O)cc(Br)c1O (configuration not stated)
Found: -0.252

Lookup: Any idea what fluorescence slope came out for CCOC(=O)c1cc2c(=O)n3cccc(C)c3nc2n(CCc2ccccc2)c1=N on Voltage-gated potassium channel subunit beta-2 (Rattus norvegicus)?
Found: -0.42

Lookup: Item Cc1ccc(S(=O)(=O)NCCCCC(NC(=O)OC(C)(C)C)C(=O)O)cc1 (configuration not stated) (tested in a mixture with another compound) with Voltage-gated potassium channel subunit beta-2 (Rattus norvegicus) - fluorescence slope?
Found: -0.6

Lookup: Test system Voltage-gated potassium channel subunit beta-2 (Rattus norvegicus); read-out fluorescence slope; what value for CCCNCC(O)COc1ccccc1C(=O)CCc1ccccc1 (configuration not stated) ?
Found: -0.521

Lookup: Recorded fluorescence slope for COc1ccc(-c2cc(C(=O)NCCc3ccccc3)no2)cc1OC with Voltage-gated potassium channel subunit beta-2 (Rattus norvegicus), please?
Found: -0.298

Lookup: # query: fluorescence slope | item Cn1c(=O)c2c(nc(SCc3nn[nH]n3)n2Cc2ccccc2F)n(C)c1=O | system: Voltage-gated potassium channel subunit beta-2 (Rattus norvegicus)
Found: -0.535

Lookup: // fetch Voltage-gated potassium channel subunit beta-2 (Rattus norvegicus) fluorescence slope for Cc1ccc(S(=O)(=O)N2CCC(C(=O)N[C@@H](Cc3ccccc3)C(=O)O)CC2)cc1
Found: -0.563

Lookup: Please tell me: fluorescence slope of CSc1n[nH]c(NCc2ccccc2)n1 , system Voltage-gated potassium channel subunit beta-2 (Rattus norvegicus)?
Found: -0.482

Lookup: Form field: fluorescence slope recorded for CCn1c(CC(=O)Nc2cccc(OC)c2)nnc1SCC(=O)Nc1nccs1 with Voltage-gated potassium channel subunit beta-2 (Rattus norvegicus) (enter value)
Found: -0.545

Lookup: # value lookup — system Voltage-gated potassium channel subunit beta-2 (Rattus norvegicus), readout fluorescence slope, item Cc1ccc(F)cc1NC(=O)Cc1nn(C)c(=O)c2ccccc12
Found: -0.555

Lookup: // map CCCn1c(SCC(=O)Nc2nnc(-c3ccccc3)s2)nnc1-c1ccccn1 to recorded fluorescence slope (system: Voltage-gated potassium channel subunit beta-2 (Rattus norvegicus))
Found: -0.376

Lookup: Which fluorescence slope is reported with Voltage-gated potassium channel subunit beta-2 (Rattus norvegicus) for this entry: NS(=O)(=O)c1ccc(NCc2c(F)cccc2Cl)cc1 ?
Found: -0.515

Lookup: Recall the recorded fluorescence slope for CCOC(=O)N1CCC(NC(=O)C2CCCN2C(=O)OCc2ccccc2)CC1 (configuration not stated) with Voltage-gated potassium channel subunit beta-2 (Rattus norvegicus) and state it.
Found: -0.561

Lookup: Find the measured fluorescence slope: item CCOC(=O)N1CCN(C(=O)Nc2ccc(Cl)cc2)CC1 , target or system Voltage-gated potassium channel subunit beta-2 (Rattus norvegicus).
Found: -0.462

Lookup: // fetch Voltage-gated potassium channel subunit beta-2 (Rattus norvegicus) fluorescence slope for O=C(NCC1CCCO1)C1CC(c2ccc(Cl)c(Cl)c2)=NO1 (configuration not stated)
Found: -0.472

Lookup: Which fluorescence slope is reported with Voltage-gated potassium channel subunit beta-2 (Rattus norvegicus) for this entry: COc1ccc(C(=O)N2CCCC(c3ccccc3)C2)cc1 (configuration not stated) ?
Found: -0.406

Lookup: Return fluorescence slope measured with Voltage-gated potassium channel subunit beta-2 (Rattus norvegicus) given this compound: CCc1cccc2c3c([nH]c12)C(CC)(CC(=O)O)OCC3 (configuration not stated)
Found: -0.442

Lookup: Return fluorescence slope measured with Voltage-gated potassium channel subunit beta-2 (Rattus norvegicus) given this compound: N#CC1=C(N)N(c2ccccc2)C2=C(C(=O)CCC2)C1c1cccs1 (configuration not stated)
Found: -0.362

Lookup: Provide value of fluorescence slope for this record tested with Voltage-gated potassium channel subunit beta-2 (Rattus norvegicus): O=C(CSc1nnc(Cn2cnc3ccccc32)o1)c1ccccc1
Found: -0.464
